# Measured On: Caspase-3 (Homo sapiens)
# Run Description: procaspase-3 enzyme activation – biochemical, absorbance, PC-3 D3A mutant, single concentration, primary screen (AID 463141);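 also: 0% = DMSO alone and 100% = DMSO wells spiked with extra 5 µM PC-3 D3A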
# Setup Conditions: recombinant procaspase-3 D3A, Ac-DEVD-pNA absorbance 405 nm; at 8.5 µM; stronger effect = higher value
Hit rate of the full screen: of about 330,000 compounds, about 350 (0.11%) were called active. The sample holds actives, similar compounds and a random draw of the others, so the mix is not that of the screen.
Assay Readout: activation (%)
Reply with just the number (in %).

Enquiry: State its activation for this compound: `COc1ccc(C)cc1NC(=O)NCc1ccccn1`
Return: -10.4

Enquiry: Answer with the recorded activation for the compound listed here: `CCCN1CCN(C(=O)CCCNC(=O)c2ccc(Cl)cc2)CC1`
Return: -2.14

Enquiry: Fill in activation for record `CCN(c1ccc2c(c1)OCO2)S(=O)(=O)c1cc(Br)cc2c1N(C(=O)C1CC1)CC2`
Return: 5.06

Enquiry: Please give the documented activation of `COc1ccc(CN2CCC(c3nc4ccc(Cl)cc4[nH]3)CC2)cc1`
Return: -3.22

Enquiry: Return reported activation. Input compound: `COc1ccccc1N=C(C)C1=C(O)COC1=O`
Return: -3.88

Enquiry: Dear colleague, please send me the reported activation for `O=C(CCNc1n[nH]c(=O)[nH]c1=O)N/N=C\c1ccc(Br)cc1` when you can.
Return: -3.48

Enquiry: Provide measured activation value, entry: `COc1ccccc1C(=O)N1CCN=C1SCc1cccnc1`
Return: -6.62

Enquiry: For the compound COc1ccc(CCNC(=O)COC(=O)C2CC2C)cc1 (centres undefined) , report activation.
Return: 9.52

Enquiry: Tell me measured activation for `CC1CCN(C(=S)NC(=O)c2ccccc2Br)CC1` please.
Return: -4.02

Enquiry: Give me measured activation, please, for this compound: `COc1cccc(-c2cc3nc4c(c(N5CCC6(CC5)OCCO6)n3n2)CCCC4)c1`
Return: 5.55

Enquiry: Return value of activation for input `Cc1ccc(C)c(NC(=O)COC(=O)c2nn(C)c(=O)c3ccccc23)c1` , no commentary.
Return: 14.6

Enquiry: For the compound `CN(C)c1ccc2c(=O)[nH][nH]c(=O)c2c1` , give its measured activation value.
Return: 10.1

Enquiry: Give the reported value of activation for this record: `O=C(CN1CCC(O)(c2cccc(C(F)(F)F)c2)CC1)NCCc1ccccc1`
Return: 2.72

Enquiry: Return activation for the following compound: `COc1ccccc1/C=C/C=N/n1c(-c2ccc(Cl)cc2Cl)n[nH]c1=S`
Return: -14.5

Enquiry: Provide only the value of recorded activation for `C[C@@H]1CN([C@H](C)CO)C(=O)c2cc(NC(=O)NC3CCCCC3)ccc2O[C@H]1CN(C)S(C)(=O)=O`
Return: -10.4

Enquiry: Report activation, nothing else, for this compound: `CCCn1c(C)cc(C(=O)COC(=O)c2c(C)nn(-c3ccccc3)c2C)c1C`
Return: 0.04

Enquiry: Output activation of COC(=O)c1ccc(CNC(=O)C2CCC(=O)N(Cc3ccccn3)C2)cc1 (centres undefined)
Return: 4.62

Enquiry: For the compound `COC(=O)[C@@H]1C[C@@]2(O)[C@H](O)[C@H](O)[C@H](O)C[C@H]2N1Cc1ccc(C(C)(C)C)cc1` , give its reported activation.
Return: 1.49

Enquiry: Supply measured activation of `Cn1cnc([N+](=O)[O-])c1Sc1n[nH]c(N)n1` in your reply.
Return: 6.6

Enquiry: # return recorded activation for input `COC(=O)Cc1cc(=O)oc2c(C)c(O)ccc12`
Return: 22.9

Enquiry: Tell us which activation value is on record for `COc1ccc2sc(-c3ccc(N(C)C)cc3)c(C#CCO)c2c1`
Return: 21.1

Enquiry: Given the compound `O=C(NCCS(=O)(=O)c1ccc(Br)cc1)c1ccccc1Cl` , write its reported activation.
Return: 3.23

Enquiry: Give activation for the following compound: `CCN(Cc1ccccc1)S(=O)(=O)c1cc(C(=O)O)ccc1OC`
Return: 5.66

Enquiry: Please give the documented activation of CC(=O)N1Cc2ccccc2CC1C(=O)O (centres undefined)
Return: 2.69

Enquiry: Read the entry `CC(C)OCCCNC(=O)CN1C(=O)/C(=C/c2ccccc2F)Oc2ccccc21` and write its reported activation.
Return: -1.27

Enquiry: Let me know recorded activation for N#Cc1ccc(C2N=C(c3ccccc3)NO2)cc1 (centres undefined) , thanks.
Return: -2.62

Enquiry: Please give measured activation of the following entry: `CN1CCN(CCCNC(=O)c2ccc(/C=C3\Oc4ccccc4N(Cc4ccc(Cl)cc4)C3=O)cc2)CC1`
Return: 38.4

Enquiry: Tell us which activation value is on record for `COc1ccc(CCNC(=O)COC(=O)c2ccc[nH]c2=O)cc1`
Return: 23.9

Enquiry: Let me know recorded activation for COc1ccc(NC(=S)N2N=CCC2c2ccccc2)cc1 (centres undefined) , thanks.
Return: 11.4

Enquiry: Please list activation recorded for the compound O=C(CC(NC(=O)c1ccccc1)c1ccccc1)Nc1ccc(F)c(F)c1 (centres undefined)
Return: 5.87

Enquiry: Give me measured activation, please, for this compound: `O=P(c1cccs1)(c1cccs1)c1cccs1`
Return: -8.39

Enquiry: Report measured activation; entry is `O=C(NCc1ccccn1)Nc1ccc(Cl)cc1`
Return: -0.71

Enquiry: Look up and state reported activation for CC(=O)Oc1ccccc1C1=NN(C(C)=O)C(c2ccccc2)C1 (centres undefined)
Return: 1.13

Enquiry: Annotate the compound `COC(=O)CN1C(=O)[C@H]2[C@@H](C3CC3)N3C(=O)CN(Cc4ccc(-c5ccccc5)cc4)C(=O)[C@@]3(Cc3ccccc3)[C@H]2C1=O` with its measured activation.
Return: 15.8

Enquiry: Specify activation for `CSc1ccc(/C=C/C(=O)NC23CC4CC(CC(C4)C2)C3)cc1` and stop.
Return: 2.05

Enquiry: Fill in activation for record `Cc1cc(-c2nc(C)c(-c3nnc(SCC(=O)Nc4ccccc4)n3C)s2)no1`
Return: -5.75

Enquiry: Return value of activation for input `Cc1nn(C)cc1CNC(=O)Nc1ccc(Cl)cc1` , no commentary.
Return: 31.2

Enquiry: Look up activation of O=C(NC1(C(F)(F)F)N=C2SCCN2C1=O)c1ccco1 (centres undefined) and report it.
Return: 1.41

Enquiry: Kindly indicate its recorded activation. Item: `Cc1ccc(-c2nnc(Nc3ccc(C(=O)N(C)C)cc3)c3ccccc23)cc1S(N)(=O)=O`
Return: 6.07

Enquiry: Specify reported activation for the compound shown: `Cc1nnc(SCC(=O)Nc2ncc3c(n2)CC(C)(C)CC3=O)s1`
Return: -5.45

Enquiry: Give the reported value of activation for this record: `O=C(CCN1CCN(C/C=C/c2ccccc2)CC1)Nc1ccccc1Cl`
Return: 8.05

Enquiry: Answer with the recorded activation for the compound listed here: `Cc1ccc(S(=O)(=O)NNC(=S)NC(C)(C)C)cc1`
Return: 9.08

Enquiry: Consider the compound `COc1cc(N=Cc2c(O)c3ccccc3oc2=O)c(OC)cc1Cl` and give its recorded activation.
Return: 3.99

Enquiry: Input `COc1cc(C(=O)NC2CCN(Cc3ccccc3)CC2)cc(Cl)c1OC(C)C` , output reported activation.
Return: 4.82

---

# Measured On: Caspase-3 (Homo sapiens)
# Run Description: procaspase-3 enzyme activation – biochemical, absorbance, PC-3 D3A mutant, single concentration, primary screen (AID 463141);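 also: 0% = DMSO alone and 100% = DMSO wells spiked with extra 5 µM PC-3 D3A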
# Setup Conditions: recombinant procaspase-3 D3A, Ac-DEVD-pNA absorbance 405 nm; at 8.5 µM
Hit rate of the full screen: of about 330,000 compounds, about 350 (0.11%) were called active.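 How the source made its calls: active means activation above the mean of all tested compounds plus 3 SD (cut at about 21% in these data); inactive means the rest.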 The entries come from a sample that favours actives as a whole.
Respond only with the outcome that fits, drawn from Y for active, N for inactive

Enquiry: Tell me the assay call for COc1ccccc1N1CCN(C(=O)c2ccc(NC3=NC4CS(=O)(=O)CC4S3)cc2)CC1 (stereo unspecified) please.
Return: N

Enquiry: What classification did `CN(C)C(=O)N=NC(=O)N(C)C` end up with in this test?
Return: N

Enquiry: Please let me know the test result on file for `Cc1cccc(NC(=O)c2cccc(C(=O)Nc3cccc(C)c3C)n2)c1C` .
Return: N

Enquiry: Please state the recorded outcome for this compound: O=C(Nc1ccccc1Cl)/C(Cl)=C(\Cl)S(=O)c1ccccc1 (stereo unspecified)
Return: N

Enquiry: I would be grateful if you could indicate the recorded call for `COc1ccc(Nc2ncc(C(=O)N3CCN(c4ccccc4OC)CC3)c3ccccc23)cc1` .
Return: Y

Enquiry: Check the results log: what was the call for `CCCOn1c(-n2nc(C)cc2C)nc2ccccc2c1=O` ?
Return: N

---

# Measured On: Caspase-3 (Homo sapiens)
# Run Description: procaspase-3 enzyme activation – biochemical, absorbance, PC-3 D3A mutant, single concentration, primary screen (AID 463141);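 also: 0% = DMSO alone and 100% = DMSO wells spiked with extra 5 µM PC-3 D3A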
# Setup Conditions: recombinant procaspase-3 D3A, Ac-DEVD-pNA absorbance 405 nm; at 8.5 µM; stronger effect = higher value
Out of some 330,000 compounds screened, about 350 (0.11%) were called active. Only a selection was taken, and actives are over-represented in it overall.
Would you mind telling me the reported activation of each entry?
Give the quantity in %, number only.

Enquiry: Complete the entry with activation for `O=S(=O)(O)Oc1c[nH]c2ccccc12`
Return: 4.41

Enquiry: Look up activation of CC1CCN(C(=S)NC2CC3CCC2C3)CC1 (stereo not given) and report it.
Return: -7.41

Enquiry: Query activation for `C=CCSc1ccc(S(=O)(=O)N2CCN(C)CC2)cn1`
Return: 6.46

Enquiry: Specify activation for `CCN1CCN(C(=O)C2(NC(=O)Nc3cccc(F)c3)CCCCC2)CC1` and stop.
Return: -1.86

Enquiry: Consider the compound `CN(C)/C=C(/C(=O)c1ccc(F)cc1)S(=O)(=O)c1ccc(F)cc1` . State its measured activation.
Return: 2.38

Enquiry: Return value of activation for input `CCOC(=O)CNC(=O)CSc1ccc2nnc(-c3cccnc3)n2n1` , no commentary.
Return: 0.59

Enquiry: Answer with the recorded activation of O=C1c2ccccc2C(O)N1Cc1ccccc1Cl (stereo not given) only.
Return: -2.13

Enquiry: Tell me its activation given `C[C@H](CO)N1C[C@H](C)[C@@H](CN(C)S(=O)(=O)c2ccc(F)cc2)Oc2ccc(NC(=O)CCC(F)(F)F)cc2C1=O` as the entry.
Return: 7.71

Enquiry: Return activation for the following compound: COc1ccc2[nH]c3c(c2c1)CCN1C(=O)C(CC(=O)NCCc2ccccn2)C[C@H](C(=O)N2CCOCC2)[C@@]31C (stereo not given in full)
Return: 0.02

Enquiry: Supply recorded activation for `Cc1cc(F)ccc1S(=O)(=O)Nc1ccc(C(=O)N(C)Cc2ccco2)cc1` here.
Return: 12.5

Values from PubChem BioAssay AID463141
